Tested on: DeltatarO mutant
Test: S. aureus survival, RN4220 and DeltatarO strains – OD600, teichoic acid synthesis inhibitors, primary screen (AID 463173)
Conditions: S. aureus RN4220 wild type/DeltatarO growth, OD600, 18 h, active compounds read low, screened at 18.75 µg/mL (by protocol)
Among all 52,000 compounds or so, about 4,300 (8.3%) were called active. This excerpt belongs to a sample that is enriched for actives.

- compound: "CCOc1ccc(CC(=O)NCC(c2cccs2)S(=O)(=O)c2ccc(F)c(C)c2)cc1 (stereo not given)"
  survival (%): 67
- compound: "COc1ccc(CCNC(=O)C2CCCN(S(=O)(=O)c3ccc4c(c3)oc(=O)n4C)C2)cc1OC (stereo not given)"
  survival (%): 72
- compound: "CSc1ccc(C2c3c(oc4cc(C)cc(C)c4c3=O)C(=O)N2Cc2ccco2)cc1 (stereo not given)"
  survival (%): 57
- compound: "CCOc1ccccc1CNC(=O)CN1C(=O)CCCc2ccccc21"
  survival (%): 86
- compound: "Cc1c(-c2nsc(NC(=O)c3cccs3)n2)nnn1-c1ccc(Br)cc1"
  survival (%): 77
- compound: "COCCCNC(=O)CSc1nc2ccccc2c(=O)n1Cc1ccco1"
  survival (%): 83
- compound: "Cc1ccc(NC(=O)c2cnc3sc(N4CCOCC4)nn3c2=O)cc1N(C)C"
  survival (%): 80
- compound: "Cc1ccccc1Nc1sc(C(=O)c2ccc3c(c2)OCO3)c(N)c1S(=O)(=O)c1ccccc1"
  survival (%): 78
- compound: "CCOC(=O)C1CCCN(C(=O)Cn2ncc3c4ccccc4n(C)c3c2=O)C1 (stereo not given)"
  survival (%): 121
- compound: "Cc1ccc(S(=O)(=O)N2C(=O)CCC2C(=O)N2CCCC2)cc1 (stereo not given)"
  survival (%): 97

###

Tested on: DeltatarO mutant
Assay: S. aureus survival, RN4220 and DeltatarO strains – OD600, teichoic acid synthesis inhibitors, primary screen (AID 463173)
Conditions: S. aureus RN4220 wild type/DeltatarO growth, OD600, 18 h, active compounds read low, screened at 18.75 µg/mL (by protocol)
Screen size: about 52,000 compounds; about 4,300 (8.3%) were called active. For the sample, actives were picked, then their nearest neighbours and some compounds at random.

- molecule: "Cc1c(CNC2CCCCCC2)c(C(=O)O)c(C)n1Cc1ccc(F)cc1Cl"
  assayTarget: "DeltatarO mutant"
  survival: "80% (inactive)"
- molecule: "CCOC(=O)c1nc(Nc2ccc(C(=O)OC(C)C)cc2)c2ccccc2n1"
  assayTarget: "DeltatarO mutant"
  survival: "68% (inactive)"
- molecule: "CCOC(=O)c1c(S(=O)(=O)N2CCCC(C(=O)N(C)Cc3ccccc3)C2)c(C)n(C)c1C (stereo not given)"
  assayTarget: "DeltatarO mutant"
  survival: "92% (inactive)"
- molecule: "Cc1cccn2c(=O)c(/C=C(\\C#N)c3nc4ccccc4n3C)c(Oc3ccc(Br)cc3)nc12"
  assayTarget: "DeltatarO mutant"
  survival: "69% (inactive)"
- molecule: "CCc1ccc(NC(=O)Cn2c(=O)ccc3cc(S(=O)(=O)N4CCCC4)ccc32)cc1"
  assayTarget: "DeltatarO mutant"
  survival: "144% (inactive)"
- molecule: "CCOC(=O)c1nc(Nc2ccc(C(C)=O)cc2)c2ccccc2n1"
  assayTarget: "DeltatarO mutant"
  survival: "49% (inactive)"
- molecule: "O=C(CSc1nc(Nc2ccc(F)cc2)c2ccccc2n1)c1ccc(F)cc1"
  assayTarget: "DeltatarO mutant"
  survival: "124% (inactive)"
- molecule: "COc1ccc(CCC(=O)N2CCc3c([nH]c4ccccc34)C2c2ccc(F)cc2)cc1 (stereo not given)"
  assayTarget: "DeltatarO mutant"
  survival: "83% (inactive)"
- molecule: "COc1cccc(CNC(=O)c2[nH]c3cc(C)ccc3c2Sc2ccccc2)c1"
  assayTarget: "DeltatarO mutant"
  survival: "83% (inactive)"
- molecule: "Cc1ccc(NC(=O)Cn2c(=O)ccc3cc(S(=O)(=O)N4CCCC4)ccc32)cc1C"
  assayTarget: "DeltatarO mutant"
  survival: "98% (inactive)"

###

Tested on: DeltatarO mutant
Assay: S. aureus survival, RN4220 and DeltatarO strains – OD600, teichoic acid synthesis inhibitors, primary screen (AID 463173)
Conditions: S. aureus RN4220 wild type/DeltatarO growth, OD600, 18 h, active compounds read low, screened at 18.75 µg/mL (by protocol)
About 4,300 (8.3%) of roughly 52,000 compounds were called active. This is one part of a sample in which actives are shown more often than they occur.
Flag rule - survival less than 80% flags Satisfied; the remaining entries get Not satisfied.

- molecule: "CCc1nc(-c2cc(S(=O)(=O)N3CCN(c4ccccc4)CC3)ccc2OC)no1"
  categoryLabel: "Satisfied"
- molecule: "CCc1ccccc1NC(=O)CSc1nc2c(c(=O)[nH]1)CN(Cc1ccccc1OC)CC2"
  categoryLabel: "Satisfied"
- molecule: "COc1ccc(NC(=O)CC2C(=O)N(c3ccc(C)cc3)C(=O)N2Cc2ccc(C)cc2)cc1 (stereo not given)"
  categoryLabel: "Satisfied"
- molecule: "CC(C)c1ccccc1Oc1c(C(F)(F)F)oc2c(CN3CCN(C)CC3)c(O)ccc2c1=O"
  categoryLabel: "Satisfied"
- molecule: "Cc1ccc(NC(=O)CSc2nncn2C)c(C)c1"
  categoryLabel: "Satisfied"
- molecule: "N#C/C(=C/Nc1cccc2ccccc12)c1nc2ccccc2o1"
  categoryLabel: "Satisfied"
- molecule: "Cc1cccc(NC(=O)c2cc3c(=O)n4cccc(C)c4nc3s2)c1C"
  categoryLabel: "Satisfied"
- molecule: "Cc1ccc(C)c(N/C=C(\\C#N)c2nc3ccccc3o2)c1"
  categoryLabel: "Not satisfied"
- molecule: "COc1ccc(S(=O)(=O)N2CCN(c3ccccc3OC)CC2)cc1-c1noc(C)n1"
  categoryLabel: "Not satisfied"

###

Test system: DeltatarO mutant
Assay: S. aureus survival, RN4220 and DeltatarO strains – OD600, teichoic acid synthesis inhibitors, primary screen (AID 463173)
Conditions: S. aureus RN4220 wild type/DeltatarO growth, OD600, 18 h, active compounds read low, screened at 18.75 µg/mL (by protocol)
Out of some 52,000 compounds screened, about 4,300 (8.3%) were called active. For the sample, actives were picked, then their nearest neighbours and some compounds at random.
The following compounds are shown together with reported survival values.
measuredQuantity: survival (%)

- compound: "Cc1[nH]c(=O)[nH]c(=O)c1NC(=O)c1ccccc1"
  measuredQuantity: "survival"
  measuredResult: 88
- compound: "COc1ccc(CCNC(=O)C(=O)NCC(c2ccco2)S(=O)(=O)c2cccs2)cc1 (stereo unspecified)"
  measuredQuantity: "survival"
  measuredResult: 99
- compound: "CC(=O)c1ccc(NC(=O)CSc2ccc3nnc(CCNS(=O)(=O)c4ccc(C)cc4)n3n2)cc1"
  measuredQuantity: "survival"
  measuredResult: 67
- compound: "COc1ccc(-n2ncc(C(=O)N3CCN(C(=O)c4ccco4)CC3)c2C2CCN(C(=O)OC(C)(C)C)CC2)cc1"
  measuredQuantity: "survival"
  measuredResult: 86
- compound: "O=C(CCn1c(=O)c2cccn2c2cccnc21)N1CCN(c2ccccc2)CC1"
  measuredQuantity: "survival"
  measuredResult: 102
- compound: "Cc1noc2ncnc(N3CCCC(C(=O)Nc4cccc(C(F)(F)F)c4)C3)c12 (stereo unspecified)"
  measuredQuantity: "survival"
  measuredResult: 93
- compound: "O=C(NCCCO)C(=O)NCC(c1ccc2c(c1)OCO2)N1CCOCC1 (stereo unspecified)"
  measuredQuantity: "survival"
  measuredResult: 37
- compound: "CC1CCCCN1C(=O)CSc1nc2ccccc2c(=O)[nH]1 (stereo unspecified)"
  measuredQuantity: "survival"
  measuredResult: 82
- compound: "Cc1ccnc(NS(=O)(=O)c2ccc(NC(=O)c3nc(SC(C)C)ncc3Cl)cc2)n1"
  measuredQuantity: "survival"
  measuredResult: 58
- compound: "O=C(CCn1c(=O)c2cccn2c2cccnc21)N1CCN(c2cccc(Cl)c2)CC1"
  measuredQuantity: "survival"
  measuredResult: 46
- compound: "CC(C)(C)CC(=O)NCC(c1ccc2c(c1)OCO2)N1CCOCC1 (stereo unspecified)"
  measuredQuantity: "survival"
  measuredResult: 80
- compound: "COc1ccc(C(=O)NCC(c2ccc3c(c2)OCO3)N2CCN(C)CC2)cc1 (stereo unspecified)"
  measuredQuantity: "survival"
  measuredResult: 47
- compound: "COc1cccc(C(=O)NCC(c2ccc3c(c2)OCO3)N2CCN(C)CC2)c1 (stereo unspecified)"
  measuredQuantity: "survival"
  measuredResult: 112
- compound: "Cc1oc(-c2cccc(Cl)c2)nc1CSc1nncn2c1cc1occc12"
  measuredQuantity: "survival"
  measuredResult: 103
- compound: "Cc1cc(OCC(=O)N(Cc2ccc(N(C)C)cc2)C2CCS(=O)(=O)C2)cc(C)c1Cl (stereo unspecified)"
  measuredQuantity: "survival"
  measuredResult: 97
- compound: "COc1ccccc1OCC(=O)N(Cc1cccs1)C1CCS(=O)(=O)C1 (stereo unspecified)"
  measuredQuantity: "survival"
  measuredResult: 53
- compound: "CCOc1ccc(C(=O)NCC(c2ccc3c(c2)OCO3)N2CCN(C)CC2)cc1 (stereo unspecified)"
  measuredQuantity: "survival"
  measuredResult: 78
- compound: "COc1ccc(C)cc1Nc1cc(C)nc(C)n1"
  measuredQuantity: "survival"
  measuredResult: 66
- compound: "Cc1cn(C(=O)c2ccccc2)c(=O)[nH]c1=O"
  measuredQuantity: "survival"
  measuredResult: 57
- compound: "CNC(=O)C(=O)NCC(c1ccc2c(c1)OCO2)N1CCOCC1 (stereo unspecified)"
  measuredQuantity: "survival"
  measuredResult: 89
- compound: "Cc1cc(Cl)ccc1OCC(=O)N(Cc1sccc1C)C1CCS(=O)(=O)C1 (stereo unspecified)"
  measuredQuantity: "survival"
  measuredResult: 74
